From: ChEMBL document CHEMBL5724696

system: TERT-RPE1; assay: Here: values are normalized to the negative (DMSO; defined as 0% autophagy induction) and positive (250nM Torin1; mTOR inhibitor; defined as maximal inducer of autophagy = 100%) control compounds and represented as % of autophagy induction. […] The impact of autophagy induction on cells is complex and depends on the affected target. As such, the magnitude of a phenotype may not be equally mirrored in the %-value of autophagy induction and vice versa. The dynamics of the induction may indicate the mode of activation: e.g. activation via phosphorylation or a signaling cascade may occur fast, while activation via transcription factors may take considerably longer. […] Of note, treatment concentrations may be sub-optimal for specific compounds, leading to false negative annotations.; type: functional, Homo sapiens; settings: Compound Concentration 1 uM, Timepoint 60 hours, Culturing Media DMEM/F12 (1:1), 1 % Penicillin/Streptomycin, 10% Fetal bovin serum Add-On: No, Screening Media Control DMEM/F12 (1:1), Screening Media Samples DMEM/F12 (1:1)
MEASURE: autophagy induction (%)
Use % as the unit, but write only the number.

Value of autophagy induction reported for the compound CCOC(=O)Nc1ccc2c(c1)N(C(=O)CN(CC)CC)c1ccccc1CC2 is 1.708

Value of autophagy induction reported for the compound CC[C@H](C)C(=O)O[C@H]1C[C@@H](C)C=C2C=C[C@H](C)[C@H](CC[C@@H]3C[C@@H](O)CC(=O)O3)[C@H]21 is 48.5439

Value of autophagy induction reported for the compound OC(c1ccc(-c2ccc(CN3CCN(Cc4ccncc4)CC3)cc2)c(F)c1)(C(F)(F)F)C(F)(F)F is 2.172

Value of autophagy induction reported for the compound COc1cccc(Cn2cc(C(=O)Nc3ccc(C)c(S(=O)(=O)N4CCOCC4)c3)c(-c3ccc(C)cc3)n2)c1 is -4.917

Value of autophagy induction reported for the compound CC1(C)CCC(C)(C)c2cc(C(=O)Nc3ccc(C(=O)O)cc3)ccc21 is 28.5347

Value of autophagy induction reported for the compound CO[C@H]1/C=C/O[C@@]2(C)Oc3c(C)c(O)c4c(O)c(c(/C=N/N5CCN(C)CC5)c(O)c4c3C2=O)NC(=O)/C(C)=C\C=C\[C@H](C)[C@H](O)[C@@H](C)[C@@H](O)[C@@H](C)[C@H](OC(C)=O)[C@@H]1C is 5.829

Value of autophagy induction reported for the compound CC(C)OC(=O)C1=CN(C(=O)c2ccc(F)c(F)c2)CC(C)(C)c2c1[nH]c1ccccc21 [TUROFEXORATE ISOPROPYL] is 2.1006

Value of autophagy induction reported for the compound C[C@H](CCOc1cccc(CC(=O)O)c1)N(Cc1cccc(C(F)(F)F)c1Cl)CC(c1ccccc1)c1ccccc1.Cl is -16.0779

Value of autophagy induction reported for the compound CC(C)C(=O)N1CCC(c2cn(C)c3ncc(NC(=O)c4cccc(C#N)c4)c(C(F)(F)F)c23)CC1 is -15.2604

Value of autophagy induction reported for the compound CC1(C)C(=O)C(C)(C)c2cc(C(=O)Nc3ccc(C(=O)O)cc3)ccc21 is -28.4557

Value of autophagy induction reported for the compound CCOC(=O)N1CCC(CN(Cc2ccc(Cl)cc2)Cc2ccc([N+](=O)[O-])s2)C1 (stereo unspecified) is -0.7127

Value of autophagy induction reported for the compound Cc1cc(OCC(=O)O)cc(C)c1Cc1ccc(O)c(C(C)C)c1 is 12.5403

Value of autophagy induction reported for the compound N[C@@H](Cc1cc(I)c(Oc2ccc(O)c(I)c2)c(I)c1)C(=O)O is -7.587

Value of autophagy induction reported for the compound CC(=O)Nc1nc(C)c(S(=O)(=O)Nc2ccc(C(O)(C(F)(F)F)C(F)(F)F)cc2)s1 is -92.7489

Value of autophagy induction reported for the compound C[C@H]1[C@H]2CC[C@H]3[C@@H]4CC=C5C[C@@H](N(C)C)CC[C@]5(C)[C@H]4CC[C@]23CN1C is 14.1244

Value of autophagy induction reported for the compound CCOC(=O)c1ccc(C#Cc2ccc3c(c2)C(C)(C)CCS3)nc1 is 40.4791
